# TARGET OR TEST SYSTEM: AXL (Homo sapiens, UniProt P30530)
# Construct: endogenous in cells
# Sequence (P30530 26-894): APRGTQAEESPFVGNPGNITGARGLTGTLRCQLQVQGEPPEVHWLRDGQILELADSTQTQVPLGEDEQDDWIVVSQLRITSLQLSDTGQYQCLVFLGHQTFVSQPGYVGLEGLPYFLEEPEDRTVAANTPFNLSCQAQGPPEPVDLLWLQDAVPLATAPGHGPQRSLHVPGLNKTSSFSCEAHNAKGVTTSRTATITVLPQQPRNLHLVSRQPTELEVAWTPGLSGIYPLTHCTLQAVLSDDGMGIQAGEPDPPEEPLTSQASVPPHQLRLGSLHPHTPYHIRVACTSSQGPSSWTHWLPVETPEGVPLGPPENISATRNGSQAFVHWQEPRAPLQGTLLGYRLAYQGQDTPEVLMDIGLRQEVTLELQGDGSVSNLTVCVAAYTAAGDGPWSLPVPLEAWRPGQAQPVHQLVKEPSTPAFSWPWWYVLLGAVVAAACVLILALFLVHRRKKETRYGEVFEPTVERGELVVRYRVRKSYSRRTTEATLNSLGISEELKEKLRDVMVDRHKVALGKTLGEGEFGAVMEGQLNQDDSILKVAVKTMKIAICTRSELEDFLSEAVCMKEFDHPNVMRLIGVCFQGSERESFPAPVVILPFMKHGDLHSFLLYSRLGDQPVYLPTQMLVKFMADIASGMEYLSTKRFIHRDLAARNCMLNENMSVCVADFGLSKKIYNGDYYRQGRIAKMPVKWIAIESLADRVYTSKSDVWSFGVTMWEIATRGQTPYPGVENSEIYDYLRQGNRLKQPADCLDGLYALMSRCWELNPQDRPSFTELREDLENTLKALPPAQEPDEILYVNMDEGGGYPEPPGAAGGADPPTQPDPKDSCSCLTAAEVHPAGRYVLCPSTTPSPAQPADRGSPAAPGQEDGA
# ASSAY INFO: AXL autophosphorylation ELISA in A-172 cells
# MEASUREMENT CONTEXT: cellular activity, Gas6-stimulated, phospho-AXL ELISA
RESULT TYPE: IC50

# count of solved cases: 3
compound=O=C(Nc1ccc(F)cc1)C1(C(=O)Nc2ccc(Oc3ccnc4cc(-c5cccnc5)ccc34)c(F)c2)CC1 recorded_value="10 to 100 nM"
compound=O=C(Nc1ccc(F)cc1)C1(C(=O)Nc2ccc(Oc3ccnc4cc(-c5cnn(CCO)c5)ccc34)cc2)CC1 recorded_value="≤ 10 nM"
compound=O=C(Nc1ccc(F)cc1)C1(C(=O)Nc2ccc(Oc3ccnc4cc(-c5ccc(O)nc5)ccc34)cc2)CC1 recorded_value="≤ 10 nM"

--- query ---
// IC50 lookup, key: COc1cncc(-c2ccc3c(Oc4ccc(NC(=O)C5(C(=O)Nc6ccc(F)cc6)CC5)cc4)ccnc3c2)c1
10 to 100 nM
